Test: Metal chelating activity of the compound assessed as formation of copper complex at 50 uM after 10 mins by UV-visible spectroscopy
Format: physicochemical
readout label: Activity

For orientation, consider the following solved cases.
# compound, Activity
rows = [
    ("COc1cc(/C=C/C(=O)CC(=O)/C=C/c2ccc(O)c(OC)c2)ccc1O", "Active"),
    ("O=C1/C(=C/c2ccc(O)c(O)c2)C(c2ccccc2)n2cccc21 (stereo not drawn)", "Active"),
    ("COc1cc(C2/C(=C\\c3cc(OC)c(OC)c(OC)c3)C(=O)c3cccn32)ccc1O (stereo not drawn)", "Not Active"),
    ("COc1ccc(/C=C2/C(=O)c3cccn3C2c2ccc(OC)c(O)c2)cc1O (stereo not drawn)", "Active"),
]

The compound identified as COc1ccc(C2/C(=C\c3ccc(O)c(OC)c3)C(=O)c3cccn32)cc1O (stereo not drawn) registered its Activity at Active

The compound identified as COc1cc(C2/C(=C\c3cc(OC)c(O)c(OC)c3)C(=O)c3cccn32)ccc1O (stereo not drawn) registered its Activity at Not Active

The compound identified as COc1ccc(/C=C2/C(=O)c3cccn3C2c2ccc(O)c(OC)c2)cc1O (stereo not drawn) registered its Activity at Not Active

The compound identified as COc1ccc(C2/C(=C\c3ccc(O)c(O)c3)C(=O)c3cccn32)cc1O (stereo not drawn) registered its Activity at Active

The compound identified as COc1cc(C2/C(=C\c3ccc(O)c(O)c3)C(=O)c3cccn32)ccc1O (stereo not drawn) registered its Activity at Active

The compound identified as COc1cc(/C=C2/C(=O)c3cccn3C2c2ccccc2)ccc1O (stereo not drawn) registered its Activity at Not Active

The compound identified as COc1cc(/C=C2/C(=O)c3cccn3C2c2ccc(O)c(OC)c2)ccc1O (stereo not drawn) registered its Activity at Active

The compound identified as COc1ccc(/C=C2/C(=O)c3cccn3C2c2ccc(O)c(OC)c2)c(OC)c1 (stereo not drawn) registered its Activity at Not Active

The compound identified as O=C1/C(=C/c2ccc(O)c(O)c2)C(c2ccc(O)c(O)c2)n2cccc21 (stereo not drawn) registered its Activity at Active
